Reference source: PubChem BioAssay

test: ovarian cancer cell viability with rucaparib, profiling panel, oncology-focused library, rucaparib conditional (AID 1508598); settings: patient-derived ovarian cancer cells, CellTiter-Glo viability, 144 h; at 0.00488 µM; OCI-C5x cells; without rucaparib; stronger effect = lower value
Some compounds, each annotated with its measured viability.
Numeric only. Scale: %

[
  {
    "SMILES CODE": "COc1c(C)c2c(c(O)c1C/C=C(\\C)CCC(=O)OCCN1CCOCC1)C(=O)OC2",
    "READOUT UNITS": "%",
    "viability": 110
  },
  {
    "SMILES CODE": "CCN(CC)CCNC(=O)c1c(C)[nH]c(/C=C2\\C(=O)Nc3ccc(F)cc32)c1C",
    "READOUT UNITS": "%",
    "viability": 108
  },
  {
    "SMILES CODE": "CNC(=O)c1cc(Oc2ccc(NC(=O)Nc3ccc(Cl)c(C(F)(F)F)c3)cc2)ccn1",
    "READOUT UNITS": "%",
    "viability": 114
  }
]

Return reported viability; argument: Cc1cc(O)c2c(c1)C(=O)c1cccc(O)c1C2=O
112

I would be grateful if you could share the reported viability for CNC(=O)c1ccccc1Sc1ccc2c(/C=C/c3ccccn3)n[nH]c2c1 .
110

For the compound Cc1nc(Nc2ncc(C(=O)Nc3c(C)cccc3Cl)s2)cc(N2CCN(CCO)CC2)n1 , what viability is on record?
108
